ASSAY_NOTES: in vitro
MEASUREMENT_CONDITIONS: human, hela cells, % viability
OBSERVABLE: viability at 28.5 h, 10 µM (%)

COMPOUND	OBSERVABLE	NUMERIC_RESULT
O=C(c1ccncc1)N1CCc2cc(S(=O)(=O)N3CCOCC3)ccc21	viability at 28.5 h, 10 µM	92.8
Clc1ccc(Nc2nc(-c3ccoc3)cn3ccnc23)cc1	viability at 28.5 h, 10 µM	102
CC1(C)CC(=O)N(C2CCCCC2)C(=O)C1C#N (stereo not shown)	viability at 28.5 h, 10 µM	107
COCCOc1cccc(OCCOc2nccnc2N2CCNC[C@H]2C)c1	viability at 28.5 h, 10 µM	104
COc1cccc2cc(C(=O)C3=C(O)C(=O)N(CCN4CCOCC4)C3c3cccs3)oc12 (stereo not shown)	viability at 28.5 h, 10 µM	101
CC(=O)N[C@H]1CC[C@]2(C)CCC([C@H](C)C(=O)NCCN3CCCC3)[C@H](O)[C@H]2[C@@H]1C (stereo partly shown)	viability at 28.5 h, 10 µM	86.5
O=C(NCCCNc1c(Cl)cccc1[N+](=O)[O-])c1ccc(F)cc1	viability at 28.5 h, 10 µM	99.4
Cc1nc(=O)c(-c2ccccc2)c(C)n1CCCCCC(=O)O	viability at 28.5 h, 10 µM	113
Cc1ccc(NC(=O)CC2SC(NC3CCCCC3)=NC2=O)c(C)c1 (stereo not shown)	viability at 28.5 h, 10 µM	87.9
Nc1cc(N)nc(SCC(=O)Nc2ccc(Oc3ccccc3)cc2)n1	viability at 28.5 h, 10 µM	95
O=C(O)c1ccccc1C(=O)Nc1c(-c2ccccc2)nc2ccccn12	viability at 28.5 h, 10 µM	96.2
Cn1nc2c(c1O)CCCC2	viability at 28.5 h, 10 µM	102
CCCC1=NN=C(c2cc(C(F)(F)F)ccc2C(F)(F)F)C1C(=O)OCC (stereo not shown)	viability at 28.5 h, 10 µM	118
COc1cccc(CN2C(=O)[C@H]3CCCN3C(=O)c3ccccc32)c1	viability at 28.5 h, 10 µM	108
CCOC(=O)c1cccc(NS(=O)(=O)c2cc(F)c(Br)cc2F)c1	viability at 28.5 h, 10 µM	89.2
CN1CCN(CCCNC(=O)N2CCN(Cc3ccccc3)CC2)CC1	viability at 28.5 h, 10 µM	91.3
Cn1c(=O)c2c(ncn2CCCn2cnc3c2c(=O)n(C)c(=O)n3C)n(C)c1=O	viability at 28.5 h, 10 µM	106
Oc1cccc(Sc2nc3ccccc3nc2N2CCCC2)c1	viability at 28.5 h, 10 µM	88.5
C(=C\c1ccccc1)/Cn1c(COc2ccccc2)nc2ccccc21	viability at 28.5 h, 10 µM	91.6

====

Below is a list of entries, each paired with its recorded viability at 28.5 h, 10 µM value.
ASSAY_NOTES: in vitro
MEASUREMENT_CONDITIONS: human, hela cells, % viability

COMPOUND	viability at 28.5 h, 10 µM / %
c1ccc(-c2nn3c(Cn4nnc5ccccc54)nnc3s2)cc1 [CBK268271]	106
CN1CC[C@@H]2[C@H]1C(=O)NC[C@H](CCC(=O)NCc1cccs1)N2C [CBK289028]	115
O=C(CSc1nc2cccnc2[nH]1)Nc1cc(Cl)ccc1Cl [CBK264644]	101
Cn1ccnc1CNC(=O)N1CCCC(C(=O)c2cccc(Cl)c2)C1 (stereo not drawn) [CBK307479]	105
COc1cc(CN2CCC(N3CCN(c4ccccc4)CC3)CC2)ccc1OCc1ccccc1 [CBK264655G]	95.6
Cc1noc(C)c1C(=O)N1CCN(c2ccccc2)CC1 [CBK200165]	97.8
CC(C)(C)OC(=O)N(CCCN1CCN(c2ccc(F)cc2)CC1)c1ccccc1 [CBK016723]	89.2
COCc1nnc(Sc2nc3ccccc3nc2NC(C)C)s1 [CBK115253]	96.5
Cc1c(C(=O)Nc2ccc(S(=O)(=O)N3CCCCCC3)cc2)oc2ccc(Cl)cc12 [CBK267664]	89.2

====

ASSAY_NOTES: in vitro
MEASUREMENT_CONDITIONS: human, hela cells, % viability

COMPOUND	viability at 28.5 h, 10 µM [%]
O=C1CCCCC1SCn1nnc2ccccc21 (stereo not drawn) [CBK011412]	94.8
CCc1ccc(CNC(=O)Cn2nnc(-c3ccc(CNCC4CC4)cc3)n2)cc1 [CBK161032C]	109
COc1ccc([C@@]23CC[C@@H](N)C[C@@H]2N(C(C)(C)C)CC3)cc1OC [CBK067673]	114
CCC(CC)C(=O)N(C)c1c(C)nc2ccc(C(=O)NCc3ccc(OC)cc3)cn12 [CBK146501]	97.9
Cc1ccccc1NC(=O)NCc1ccccc1 [CBK105833]	86.8
CC(C)C(=O)N1CCC[C@@H](Cn2nc(-c3cccs3)ccc2=O)C1 [CBK282317]	96.5
Clc1ccc(OCc2ccccc2)c(CNCc2ccccn2)c1 [CBK269850C]	91.2
Cc1nc(C(F)(F)F)ccc1C(=O)NCC(C)(C)N1CCCCC1 [CBK281864]	98
CN(C)c1ccc(CC(=O)Nc2cnc(-c3cccc(C(F)(F)F)c3)c(-c3cccnc3)n2)cc1 [CBK036901]	98.2

====

ASSAY_NOTES: in vitro
Set-up: Viability of infected HeLa host cells, resazurin conversion, bulk resorufin fluorescence relative to DMSO
MEASUREMENT_CONDITIONS: human, hela cells; bulk resorufin, mean of 2
Below is a list of entries, each paired with its recorded viability at 28.5 h, 10 µM value.
OBSERVABLE: viability at 28.5 h, 10 µM (%)

MOLECULE	UNIT_ABBREV	NUMERIC_RESULT
Oc1c(CN2CCN(c3ccc(F)cc3)CC2)cc(Br)c2cccnc12	%	92.4
O=C(CCN1CCCCC1)Nc1ccc2c(=O)n3c(nc2c1)/C(=C/c1ccccc1)CC3	%	92.6
O=C(NCCc1c[nH]c2ccc(Cl)cc12)c1ccc(Cl)cc1Br	%	93.1
O=C(CC1CCN(CCc2ccccc2)CC1)Nc1cccc(-n2cccn2)c1	%	88.6
CCOC(=O)c1c(C)n(-c2ccc(C)cc2)c2ccc(O)c(CN(C)C)c12 [CBK263499C]	%	90.3
Cn1cc(C(c2ccc(OCC(=O)O)cc2)c2cn(C)c3ccccc23)c2ccccc21	%	115
C1=C(CCNCCc2ccccc2)c2ccccc2C12CCCC2	%	97.2
O=C(NCc1cccnc1)/C(=C/c1ccc(-c2cccc(Cl)c2)o1)S(=O)(=O)c1ccccc1	%	97.8
COc1ccc(S(=O)(=O)Nc2ccc(S(=O)(=O)Nc3nccs3)cc2)c([N+](=O)[O-])c1	%	119

====

Below is a list of entries, each paired with its recorded viability at 28.5 h, 10 µM value.
ASSAY_NOTES: in vitro
MEASUREMENT_CONDITIONS: human, hela cells, % viability

MOLECULE	viability at 28.5 h, 10 µM [%]
Cc1ccsc1CN(Cc1cncn1C)CC(C)O (stereo not drawn)	85.7
Cn1ccnc1C(O)(c1ccccc1)c1nccn1C	97.6
CC(C)NC(=O)N1Cc2nc[nH]c2C[C@H]1C(=O)NCc1ccco1	92.9
Cc1ccc2cc(S(=O)(=O)Nc3cccc(C(=O)O)c3)ccc2c1	101
Cc1c(F)cccc1CNCc1ccc(CNC(=O)OC(C)(C)C)cc1	103
O=C(CCC(=O)c1ccccc1)Nc1ccccc1N1CCNCC1 [CBK028284T]	92.9
Cc1cc(C(=O)NC(C)C2CC3CCC2C3)c2cnn(C(C)C)c2n1 (stereo not drawn)	96
Cc1ccc(C)c(OCCN(C)c2cc(C3CC(N)C3)nc(N)n2)c1 (stereo not drawn)	45.4
CN1CCCC(C(O)c2ccccc2)C1 (stereo not drawn)	96.9
CC(C)Nc1nccnc1Sc1cccc(O)c1	111
O=C(O)CN(CC(=O)O)S(=O)(=O)c1ccc(Cl)cc1	92.2
NS(=O)(=O)c1ccc(CNC(=O)c2cc(-c3cccc(Cl)c3)nc3ccccc23)cc1	88.7
CCc1nccn1CCCNC(=O)Nc1cccnc1	94.6
Cn1cc(-c2nccnc2OCCn2cccc2)cn1	88.6
COc1ccccc1CC(=O)N(Cc1cccnc1)C[C@@H]1CCC(=O)N1	95.7
COc1ccccc1CC(=O)N1C2CCC1CC(O)(c1ccco1)C2 (stereo not drawn)	88.8
O=C(CN1C(=O)CCC1=O)NCCc1ccccc1	98.3
Oc1n[nH]c(-c2ccccc2Cl)c1Cc1c(Cl)cccc1Cl	84.1
O=C(O)CSc1nnc(-c2ccncc2)n1-c1ccccc1	109
COCC1CCCN(Cc2cn(C)nc2C(C)(C)C)C1 (stereo not drawn)	108
Cc1ccc(Cl)cc1NC(=O)CCn1cnc2ccccc2c1=O	95.1

====

Below is a list of entries, each paired with its recorded viability at 28.5 h, 10 µM value.
ASSAY_NOTES: in vitro
MEASUREMENT_CONDITIONS: human, hela cells, % viability

COMPOUND	viability at 28.5 h, 10 µM, %
c1cnn(C2CCCN(Cc3ccc(Oc4cnccn4)cc3)C2)c1 (stereo not shown) [CBK304043]	96.9
Cc1ccc(CN2CCCC3(C/C=C/COc4ccccc4C(=O)NCCNC3=O)C2)cn1 (stereo not shown) [CBK292022]	94
O=c1[nH]c2ccccc2nc1-c1cc(Br)ccc1NCc1ccccc1 [CBK088071]	106
O=C(CSc1ncn(-c2ccccc2)n1)c1ccc(Br)cc1 [CBK027014]	91.6
Cc1cccc2c(=O)nc(-c3ccccc3Cl)oc12 [CBK152422]	106
COc1ccccc1NC(=O)CSc1nc(O)c2c(C)cc(C)nc2n1 [CBK266095]	91.8
Cc1ccc(C)c(NC(=O)C2CN(S(=O)(=O)c3ccccc3)CCN2S(=O)(=O)c2ccccc2)c1 (stereo not shown) [CBK267349]	93.5
Nc1ncc(-c2ccc(-c3ccccc3)cc2)nc1NC1CCCCC1 [CBK063572]	87.3
CC(NC(=O)N1CCN(c2cc(C(F)(F)F)ccn2)CC1)c1ccccc1 (stereo not shown) [CBK162350]	91.7
Cc1cc(C)c2nc(-c3ccccn3)cc(C(=O)NCc3cccs3)c2c1 [CBK267772]	86.1
COc1cccc(OC)c1OCCN1CCNCC1 [CBK265089G]	90.7
Cc1ccc2cc(CN(Cc3ccccc3)S(C)(=O)=O)c(O)nc2c1 [CBK269329]	94.4
COc1ccc(-c2ccnc3[nH]c(=O)ccc23)cc1C [CBK073726]	110
CC(C)[C@@H](CO)Nc1cncc(-c2cccc3ccccc23)n1 [CBK065566]	98.4
O=C(NC(=S)Nc1ccc(S(=O)(=O)Nc2nccs2)cc1)C12CC3CC(CC(C3)C1)C2 [CBK261067]	101
O=C(CCN1C(=O)C2C3CCC(C3)C2C1=O)OCC(=O)c1ccc(-c2ccccc2)cc1 (stereo not shown) [CBK265113]	95.1
CCn1c2ccccc2c2cc(/C=N/c3cc(S(=O)(=O)c4ccc(O)c(/N=C/c5ccc6c(c5)c5ccccc5n6CC)c4)ccc3O)ccc21 [CBK261229]	76.5
COc1cc(CNC(=O)N2CCCC(CO)C2)cc(OC)c1OC (stereo not shown) [CBK156041]	91.5
NCCCNc1ccc(C(=O)Nc2ccc(Cl)cc2)cc1[N+](=O)[O-] [CBK267880]	116
CCOC(=O)/C(C(=O)c1ccccc1)=C(/N)NCCO [CBK265621]	110
Nc1ncc([C@H]2C[C@@H](O)[C@@H](CO)O2)c(=O)[nH]1 [CBK201246]	79.8
Cn1cnnc1SCc1nc(N)nc(Nc2ccccc2)n1 [CBK018022]	106
CCn1c(=O)n(CC(C)(C)O)c2cc(S(=O)(=O)N(C)C)ccc21 [CBK304893]	92.8
COc1ccc(Cl)cc1CN(C)C(=O)c1ccc(C)[nH]c1=O [CBK305794]	92.9
COc1ccc(Cl)cc1-n1c(-c2ccc3ccccc3n2)n[nH]c1=S [CBK288382]	95.4
COc1nccnc1N1CCN(CCCC#N)CC1 [CBK084225]	86.9
Cc1noc(C)c1NC(=O)c1n[nH]c2ccccc12 [CBK200301]	104
COc1ccc(N)cc1OCCn1ccnc(N2CCNCC2)c1=O [CBK024211C]	98.3
CN(C)C(=O)c1ccc(-c2ccc3c(c2)COC(C2CCN(C(=O)CC(C)(C)c4ccccc4)CC2)O3)cc1 (stereo not shown) [CBK149765]	107
CC(=O)c1ccc(S(=O)(=O)N2CCCCC2CNC(=O)c2ccco2)cc1 (stereo not shown) [CBK051472]	103
CCc1noc(CN2CCN(c3ccc(C(=O)OC)cc3)CC2C)n1 (stereo not shown) [CBK306154]	86.4
CCC(NC(=O)CCOC)c1cn2cccnc2n1 (stereo not shown) [CBK306560]	88.2
COc1ccc2cc(CNc3ccc(F)c(F)c3)c(=O)[nH]c2c1 [CBK281934]	83
Cc1cn2c(=O)c(C(=O)Nc3ccc(F)c(C(F)(F)F)c3)cnc2s1 [CBK287713]	77.9
O=C(Nc1nsc(-c2ccccc2)n1)c1ccc(F)cc1 [CBK113232]	87.8
O=C(Nc1ccccc1N1CCN(C(=O)c2ccc(Cl)cc2)CC1)c1ccc(-c2cc3ccccc3oc2=O)cc1 [CBK267280]	92.3
O=C1Nc2ccc(-c3ccccc3F)cc2C(=O)N2CCN(C(=O)C3CCNCC3)C[C@H]12 [CBK289592]	87.3

Data origin, for the record: paper PMC12040169
